Every entry's value here was drawn from ChEMBL document CHEMBL2029320.

# tgt: Relaxin-3 receptor 1 (Homo sapiens)
# Sequence (Q9NSD7 whole entry): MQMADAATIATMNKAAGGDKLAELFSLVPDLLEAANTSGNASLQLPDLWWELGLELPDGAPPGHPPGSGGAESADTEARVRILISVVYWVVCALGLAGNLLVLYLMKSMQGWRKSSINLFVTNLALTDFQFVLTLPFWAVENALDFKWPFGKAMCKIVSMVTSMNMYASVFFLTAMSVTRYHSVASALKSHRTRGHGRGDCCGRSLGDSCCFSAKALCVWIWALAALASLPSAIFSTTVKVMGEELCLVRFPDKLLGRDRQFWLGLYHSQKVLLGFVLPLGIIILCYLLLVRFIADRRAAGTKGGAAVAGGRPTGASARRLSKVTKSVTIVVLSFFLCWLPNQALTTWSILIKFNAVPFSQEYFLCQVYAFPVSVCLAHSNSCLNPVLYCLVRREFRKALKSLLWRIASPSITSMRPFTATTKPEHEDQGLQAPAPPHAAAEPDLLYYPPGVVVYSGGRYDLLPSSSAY
# test.name: Displacement of europium-labelled H3 relaxin-B chain/INSL-5 chain from RXFP3 expressed in CHO-K1 cells
# Assay type: cell-based
test.readout: Ki (nM)
The reply should be a number in nM, with the unit left off.

Example results:
> print(dat)
                          substance                                  tgt  measured.value
1  H-RAAPYGVRLSGREFIRAVIFTRGGSRW-OH  Relaxin-3 receptor 1 (Homo sapiens)            3390
2  H-RAAPYGVRLSGREFIRAVIFTSRGSRW-OH  Relaxin-3 receptor 1 (Homo sapiens)            2090
3  H-RAAPYGVRLSGREFIRAVIFRSGGSRW-OH  Relaxin-3 receptor 1 (Homo sapiens)             741
4  H-RAAPYGVRLSGREFIRAVIFTSGGSRW-OH  Relaxin-3 receptor 1 (Homo sapiens)            2950

Let us examine a further case.
Prompt: # lookup: Ki of "H-RAAPYGVRLSGREFIRAVIFTSRGGSRW-OH"
Response: 2570
